Attribution: patent US20160185837A1

Target: human glucagon receptor (human, UniProt P47871 26-477)
Experiment: cell-based or functional assay
Measured endpoint: cAMP EC50

-- ask Recorded cAMP EC50 for IP252 (Fc fusion) YSEGTFTSDYSKLLEEEAVRLFIEWLVKGPGGGGGSGGGGSGGGGSAESKYGPPCPPCPAPEAA , please?
-- reply > 3.2 µM

-- ask Requested field: cAMP EC50. Item: IP243 (Fc fusion) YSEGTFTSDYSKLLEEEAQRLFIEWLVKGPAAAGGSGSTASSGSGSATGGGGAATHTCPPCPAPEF
-- reply > 2.1 µM

-- ask Which cAMP EC50 is reported for this binder? IP263 (Fc fusion) YSEGTFTSDYSKLLEEEAVRLFIEWLVKQPGGGGGSGGGGSGGGGSGGGGSATHTCPPCPAPEF
-- reply > 18 µM
